EXPERIMENTAL_TARGET: Human CD73 (Homo sapiens, UniProt P21589)
Construct: purchased R&D Systems; host or cells: CHO cells
Sequence (P21589 27-549): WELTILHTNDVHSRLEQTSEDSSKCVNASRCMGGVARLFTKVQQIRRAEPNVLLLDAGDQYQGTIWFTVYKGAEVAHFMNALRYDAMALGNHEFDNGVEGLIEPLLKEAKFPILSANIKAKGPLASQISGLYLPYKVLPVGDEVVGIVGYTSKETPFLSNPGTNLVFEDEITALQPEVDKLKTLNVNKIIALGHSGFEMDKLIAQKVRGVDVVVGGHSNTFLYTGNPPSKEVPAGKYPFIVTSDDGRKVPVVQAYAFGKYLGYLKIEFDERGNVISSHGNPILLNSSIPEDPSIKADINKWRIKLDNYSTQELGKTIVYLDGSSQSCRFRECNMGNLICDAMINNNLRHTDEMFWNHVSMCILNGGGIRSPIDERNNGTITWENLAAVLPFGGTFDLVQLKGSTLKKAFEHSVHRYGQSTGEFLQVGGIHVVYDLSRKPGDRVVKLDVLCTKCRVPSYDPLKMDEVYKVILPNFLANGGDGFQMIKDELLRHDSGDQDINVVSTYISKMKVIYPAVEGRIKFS
ASSAY_COMMENT: CD73 Enzyme Assay
Assay type: biochemical
STATED_CONDITIONS: 0.25 nM hCD73, 25 μM AMP, kinetic read at 360 nm; read-out: CD73 Enzyme Assay IC50
pIC50: −log10 of the molar value.
METRIC_NAME: pIC50

A selection of reference data follows.
MOLECULE: C[C@H](c1ccccc1)N(C)c1nc(Cl)nc2c1ccn2[C@@H]1O[C@H](CS(=O)(=O)CP(=O)(O)O)[C@@H](O)[C@H]1O [Compound 157]
METRIC_NAME: pIC50
RESULT: > 8.00
--
MOLECULE: CC(C)OC(=O)OCOP(=O)(COC[C@H]1O[C@@H](n2ccc3c(N4CC5CCCC5C4)nc(Cl)nc32)[C@H](O)[C@@H]1O)OCOC(=O)OC(C)C (stereo partly shown) [Compound 208]
METRIC_NAME: pIC50
RESULT: < 6.00

Reported pIC50 for C[C@@H](Nc1nc(Cl)nc2c1ccn2[C@@H]1O[C@H](COCP(=O)(O)O)[C@@H](O)[C@H]1O)c1ccc(C#N)cc1 [Compound 89] was > 8.00

Reported pIC50 for O=P(O)(O)COC[C@H]1O[C@@H](n2cnc3c(NCc4cccnc4)ncnc32)[C@H](O)[C@@H]1O [Compound 27] was < 6.00
